biological target: T1, biotinylated hBLyS-ECD (human, UniProt Q9Y275 134-285, biotinylated with Biotin-X-X-NHS (molar ratio 7:1), sites not stated); assay: ELISA, biotinylated hBLyS-ECD captured on streptavidin; antibody 0.534 nM
T1 construct: The hBLyS-ECD of Embodiment 1 after biotinylation (Embodiment 2); also called biotinylated immunogen; BLyS protein; not shown: His tag of the pCPC vector
T1 sequence (Q9Y275 134-285): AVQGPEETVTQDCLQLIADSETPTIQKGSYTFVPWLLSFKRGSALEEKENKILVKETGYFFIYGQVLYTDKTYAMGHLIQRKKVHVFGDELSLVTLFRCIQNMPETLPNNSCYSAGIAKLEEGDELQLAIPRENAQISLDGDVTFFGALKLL
Please use fulfilled whenever OD450 nm is not below 2, and not fulfilled whenever it is.

Answered cases to consult:
INSERT INTO measurements (binder, qualitativelabel) VALUES
  ('L1D12 (antibody, human IgG1, V domains shown, also called LID12) VH: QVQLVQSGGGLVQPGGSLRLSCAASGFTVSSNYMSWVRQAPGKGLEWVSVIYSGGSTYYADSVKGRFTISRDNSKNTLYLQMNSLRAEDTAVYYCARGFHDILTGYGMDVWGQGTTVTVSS VL: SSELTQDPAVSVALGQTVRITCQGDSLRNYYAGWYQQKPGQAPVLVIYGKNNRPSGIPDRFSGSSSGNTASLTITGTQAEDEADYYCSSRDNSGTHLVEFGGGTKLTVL', 'not fulfilled'),
  ('111D10D6G3 (antibody, V domains shown, Mouse hybridoma antibody purified on Protein G) VH: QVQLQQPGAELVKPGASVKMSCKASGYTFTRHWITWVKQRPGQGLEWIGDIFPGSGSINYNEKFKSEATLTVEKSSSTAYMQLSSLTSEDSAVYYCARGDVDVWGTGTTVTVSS VL: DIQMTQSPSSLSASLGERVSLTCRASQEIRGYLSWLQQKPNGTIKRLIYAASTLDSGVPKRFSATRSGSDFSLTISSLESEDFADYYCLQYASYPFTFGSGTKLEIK', 'not fulfilled'),
  ('97A3C2H4 (antibody, V domains shown, Mouse hybridoma antibody purified on Protein G) VH: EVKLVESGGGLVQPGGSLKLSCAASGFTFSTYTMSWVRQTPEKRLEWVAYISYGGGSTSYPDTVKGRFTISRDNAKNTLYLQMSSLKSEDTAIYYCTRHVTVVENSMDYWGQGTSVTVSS VL: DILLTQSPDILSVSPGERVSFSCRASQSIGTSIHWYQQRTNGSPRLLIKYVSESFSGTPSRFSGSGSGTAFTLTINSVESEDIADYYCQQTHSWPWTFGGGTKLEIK', 'fulfilled'),
  ('L9G7 (antibody, human IgG1, V domains shown) VH: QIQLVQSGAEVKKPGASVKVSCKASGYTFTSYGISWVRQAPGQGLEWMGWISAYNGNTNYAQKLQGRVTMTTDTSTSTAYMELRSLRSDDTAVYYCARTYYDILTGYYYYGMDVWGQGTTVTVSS VL: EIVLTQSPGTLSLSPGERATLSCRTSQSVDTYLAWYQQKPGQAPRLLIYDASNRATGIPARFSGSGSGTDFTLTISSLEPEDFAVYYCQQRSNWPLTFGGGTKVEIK', 'not fulfilled');

Let us examine a further case.
## Input Answer whether OD450 nm of 8E7D9C7F5 (antibody, V domains shown, Mouse hybridoma antibody purified on Protein G) VH: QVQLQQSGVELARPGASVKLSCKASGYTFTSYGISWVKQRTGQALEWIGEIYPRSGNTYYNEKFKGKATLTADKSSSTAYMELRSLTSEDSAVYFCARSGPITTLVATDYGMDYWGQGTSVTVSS VL: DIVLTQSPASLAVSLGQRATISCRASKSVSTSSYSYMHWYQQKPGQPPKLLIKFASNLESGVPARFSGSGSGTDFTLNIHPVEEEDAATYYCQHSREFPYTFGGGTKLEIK is greater than or equal to 2.
## Output fulfilled

Values from patent US20210347873A1
